Entries and their HR40 (concentration required to induce 40% histamine release), patient four values follow.
SYSTEM_TESTED: IgE on basophils of ragweed allergic patients
PROTOCOL_SUMMARY: cell-based or functional assay
// note: answer is a bare numeric in µg/mL

Example cases with answers are listed next.
BINDER: AIC-M (covalent conjugate of Amb a 1 and ISS-containing polynucleotide SEQ ID NO:1, medium extent of conjugation) (protein, ragweed, UniProt P27759 26-396, looked up, average of 3.5 to 4.5 oligonucleotides (5' thio ISS oligonucleotide, SEQ ID NO:1) per Amb a 1 molecule, linked through the heterobifunctional linker sSMCC; Amb a 1 blocked with N-ethyl maleimide before activation) AEDLQEILPVNETRRLTTSGAYNIIDGCWRGKADWAENRKALADCAQGFGKGTVGGKDGDIYTVTSELDDDVANPKEGTLRFGAAQNRPLWIIFERDMVIRLDKEMVVNSDKTIDGRGAKVEIINAGFTLNGVKNVIIHNINMHDVKVNPGGLIKSNDGPAAPRAGSDGDAISISGSSQIWIDHCSLSKSVDGLVDAKLGTTRLTVSNSLFTQHQFVLLFGAGDENIEDRGMLATVAFNTFTDNVDQRMPRCRHGFFQVVNNNYDKWGSYAIGGSASPTILSQGNRFCAPDERSKKNVLGRHGEAAAESMKWNWRTNKDVLENGAIFVASGVDPVLTPEQSAGMIPAEPGESALSLTSSAGVLSCQPGAPC
RESULT_UNIT: µg/mL
OBSERVED_MEASUREMENT: 0.07
--
BINDER: AIC-L (covalent conjugate of Amb a 1 and ISS-containing polynucleotide SEQ ID NO:1, low extent of conjugation) (protein, ragweed, UniProt P27759 26-396, looked up, average of 2-3 oligonucleotides (5' thio ISS oligonucleotide, SEQ ID NO:1) per Amb a 1 molecule, linked through the heterobifunctional linker sSMCC; Amb a 1 blocked with N-ethyl maleimide before activation) AEDLQEILPVNETRRLTTSGAYNIIDGCWRGKADWAENRKALADCAQGFGKGTVGGKDGDIYTVTSELDDDVANPKEGTLRFGAAQNRPLWIIFERDMVIRLDKEMVVNSDKTIDGRGAKVEIINAGFTLNGVKNVIIHNINMHDVKVNPGGLIKSNDGPAAPRAGSDGDAISISGSSQIWIDHCSLSKSVDGLVDAKLGTTRLTVSNSLFTQHQFVLLFGAGDENIEDRGMLATVAFNTFTDNVDQRMPRCRHGFFQVVNNNYDKWGSYAIGGSASPTILSQGNRFCAPDERSKKNVLGRHGEAAAESMKWNWRTNKDVLENGAIFVASGVDPVLTPEQSAGMIPAEPGESALSLTSSAGVLSCQPGAPC
RESULT_UNIT: µg/mL
OBSERVED_MEASUREMENT: 0.026

# next binder below
Given item ragweed allergen Amb a 1 (protein, UniProt P27759 26-396, looked up) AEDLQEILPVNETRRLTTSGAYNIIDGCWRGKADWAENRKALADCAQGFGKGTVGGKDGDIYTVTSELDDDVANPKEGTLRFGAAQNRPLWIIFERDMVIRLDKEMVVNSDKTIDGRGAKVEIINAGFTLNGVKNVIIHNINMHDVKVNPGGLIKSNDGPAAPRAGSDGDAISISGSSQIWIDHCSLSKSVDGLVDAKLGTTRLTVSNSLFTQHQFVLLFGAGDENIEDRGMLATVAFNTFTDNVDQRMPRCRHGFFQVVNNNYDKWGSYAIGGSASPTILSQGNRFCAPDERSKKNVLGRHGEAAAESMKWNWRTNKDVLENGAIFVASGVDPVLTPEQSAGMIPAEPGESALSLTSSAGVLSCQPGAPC , the value recorded as its HR40 (concentration required to induce 40% histamine release), patient four is 0.0003
